tgt: Fyn (UniProt P06241)
Sequence (P06241 whole entry, looked up): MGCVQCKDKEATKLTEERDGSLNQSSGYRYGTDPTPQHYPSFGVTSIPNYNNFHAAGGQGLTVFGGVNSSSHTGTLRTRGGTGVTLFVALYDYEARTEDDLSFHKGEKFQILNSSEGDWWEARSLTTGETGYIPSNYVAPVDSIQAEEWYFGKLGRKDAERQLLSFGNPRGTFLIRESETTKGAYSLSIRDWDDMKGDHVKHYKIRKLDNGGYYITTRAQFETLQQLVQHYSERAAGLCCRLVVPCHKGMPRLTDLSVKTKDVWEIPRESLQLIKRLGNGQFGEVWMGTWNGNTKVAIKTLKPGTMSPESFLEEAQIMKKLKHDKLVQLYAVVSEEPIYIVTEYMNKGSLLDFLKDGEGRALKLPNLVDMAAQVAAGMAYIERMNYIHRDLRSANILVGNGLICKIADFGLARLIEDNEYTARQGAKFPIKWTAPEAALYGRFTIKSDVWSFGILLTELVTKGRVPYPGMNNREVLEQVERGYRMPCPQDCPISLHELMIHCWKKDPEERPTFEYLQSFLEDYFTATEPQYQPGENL
assay-notes: phosphorylation enrichment, bacterial display (enrichment ratio); higher = better substrate or ligand; peptides without Tyr show the background
# label = true (1) if phosphorylation enrichment >= 0.5 else false (0)

[[record]]
sequence_data = "DKEKWYPLGNS [PIK3C2G_Y1438]"
class = "false (0)"

[[record]]
sequence_data = "SEDSEYYRAFE [CASQ2_Y178_K180R]"
class = "true (1)"

[[record]]
sequence_data = "GPKSTYISSAG [GOLGA5_Y62_A67G]"
class = "false (0)"

[[record]]
sequence_data = "REAMEYLESKQ [BTK_Y511_C506R]"
class = "true (1)"

[[record]]
sequence_data = "SVTCTYSPAPN [TP53_Y126_L130P]"
class = "false (0)"

[[record]]
sequence_data = "SVVVTYEPPEV [TP53_Y220_P219T]"
class = "true (1)"

[[record]]
sequence_data = "RKELFYKADGE [SERPINC1_Y272]"
class = "true (1)"

[[record]]
sequence_data = "HVLEEYKPKQG [SAXO2_Y37_P34L]"
class = "true (1)"

[[record]]
sequence_data = "PQAVRYIFTID [DCX_Y103_G100A_YF]"
class = "true (1)"

[[record]]
sequence_data = "FARNCYVAGQF [G6PD_Y107_S106C_YF]"
class = "false (0)"

[[record]]
sequence_data = "KSAAIYNPVIY [RHO_Y301]"
class = "true (1)"

[[record]]
sequence_data = "MSNVPYVMNRG [ACAT1_Y161]"
class = "false (0)"

[[record]]
sequence_data = "CGQDPCIRELG [UROS_Y19_Y19C]"
class = "false (0)"

[[record]]
sequence_data = "RLLRGYRQDAY [HLA-A_Y137_F133L]"
class = "true (1)"

[[record]]
sequence_data = "CTTIHHNYMCN [TP53_Y234_Y234H]"
class = "false (0)"

[[record]]
sequence_data = "CDSSGYWTPEE [PAPPA2_Y908]"
class = "false (0)"

[[record]]
sequence_data = "FRPHLYGTPSR [ADGRE2_Y670_S665F]"
class = "true (1)"


----------
tgt: c-Src SH2
assay-notes: SH2 binding enrichment of the phosphorylated peptide, bacterial display (enrichment ratio); higher = better substrate or ligand; peptides without Tyr show the background
# SH2 binding enrichment annotations
measure-name: SH2 binding enrichment

[[record]]
sequence_data = "PLDGEYFTPQI [TP53_Y327_L330P]"
measure_name = "SH2 binding enrichment"
experimental_result = 0.45

[[record]]
sequence_data = "LNPVVYTLRNA [OR4C12_Y285]"
measure_name = "SH2 binding enrichment"
experimental_result = 0.629

[[record]]
sequence_data = "VYLGAYDCFLP [SLC22A5_Y486_R488C]"
measure_name = "SH2 binding enrichment"
experimental_result = 0.992

[[record]]
sequence_data = "PDGHEYIYVDP [PDGFRA_Y572]"
measure_name = "SH2 binding enrichment"
experimental_result = 0.752

[[record]]
sequence_data = "DEDFLYREELA [POR_Y575_YF]"
measure_name = "SH2 binding enrichment"
experimental_result = 0.448

[[record]]
sequence_data = "NTGDYCDLYGG [PTPN11_Y63_Y63C]"
measure_name = "SH2 binding enrichment"
experimental_result = 0.988

[[record]]
sequence_data = "PAVGIYNDNIN [CDCP1_Y707]"
measure_name = "SH2 binding enrichment"
experimental_result = 0.481

[[record]]
sequence_data = "LNPDGYKKAYE [CPXM2_Y427_E428K]"
measure_name = "SH2 binding enrichment"
experimental_result = 0.444

[[record]]
sequence_data = "FQASFYRRGDR [LTK_Y677_R673Q_YF]"
measure_name = "SH2 binding enrichment"
experimental_result = 0.295

